# test.target: HLA-DRB1*1301 (human)
# assay.summary: competition binding; FIG. 35A
recorded.metric: pIC50
Answers are plain numbers, as −log10 of the molar value.

Record pIC50 per entry; entries follow.
1. KIVFKNMASRPYSIY [SEQ ID NO: 3 (KIVFKNMASRPYSIY)]
2. SHEFHAINGMIYSLP [SEQ ID NO: 7 (SHEFHAINGMIYSLP)]

Reply:
[5.53, 4.07]

Data origin: patent US20210300985A1
